# Test system: rat distal ileal brush border membrane vesicles
# Measurement notes: In vitro inhibition of bile acid uptake (sodium-dependent 3H taurocholate uptake)
# Format: biochemical
# Measurement setup: 3 μM compound; active (sodium-dependent) 3H taurocholate uptake, 30 seconds at 24° C., pH 7.4
Counter-ions that a name gives are not always drawn.

{"Compound": "COc1ccc2c(c1)S(=O)(=O)CC1(CCCCC1)NC2c1ccccc1 (racemic)", "% inhibition of bile acid uptake": "36%"}
{"Compound": "CCC(=O)CC1(CC)CS(=O)(=O)c2ccccc2C(c2ccccc2)N1 (mixture of isomers)", "% inhibition of bile acid uptake": "77%"}
{"Compound": "CCC(=O)CC1(CC)CS(=O)(=O)c2ccc(OC)cc2C(c2ccccc2)N1 (mixture of isomers) [Example 51, hydrochloride]", "% inhibition of bile acid uptake": "100%"}
{"Compound": "CCC(=O)CC1(CC)CS(=O)(=O)c2cc(OC)ccc2C(c2ccccc2)N1 (mixture of isomers) [Example 5, hydrate]", "% inhibition of bile acid uptake": "94%"}
